Exercise: state measured red/green cell ratio (normalised) for each of the compounds provided.
- assay_method_text: differential killing of epithelial or mesenchymal cells, primary screen, imaging, PC-3E GFP, TEM4-18 mCherry, co-culture (AID 1345086);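 also: normalised mesenchymal count divided by normalised epithelial count so high means epithelial killing; cells exposed to compound for 72 h before imaging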
- setup_conditions: imaging cell counts, at 1 µM, actives lie on both sides
Active and inactive are the calls of the source.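 The calls were made as follows: active = compounds killing one labelled cell type while sparing the other, by normalised counts and ratio limits, not self-fluorescent; inactive = the rest.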

So for c1ccc2c(c1)cc1ccc3cccc4ccc2c1c34 , the logged red/green cell ratio (normalised) turned out to be 0.86 (inactive)

So for C#C[C@@H]1CC2C3CCC4=C[C@@H](OC(C)=O)CCC4C3CC[C@]2(C)[C@H]1OC(C)=O (some centres not stated) , the logged red/green cell ratio (normalised) turned out to be 0.9 (inactive)

So for Clc1ccc(COC(Cn2ccnc2)c2ccc(Cl)cc2Cl)cc1 (configuration not stated) , the logged red/green cell ratio (normalised) turned out to be 1.13 (inactive)

So for O=c1c(O)c(-c2ccc(O)c(O)c2)oc2c(O)c(O)cc(O)c12 , the logged red/green cell ratio (normalised) turned out to be 1.09 (inactive)

So for CC(=O)C1CCC2C3CCC4C[C@H](O)CCC4(C)C3C[C@H](O)C12C (some centres not stated) , the logged red/green cell ratio (normalised) turned out to be 1.12 (inactive)

So for Cc1nccc2c1[nH]c1ccccc12 , the logged red/green cell ratio (normalised) turned out to be 0.96 (inactive)

So for CC(C)(O)[C@@H]1[C@H]2OC(=O)[C@@H]1[C@]1(O)C[C@H]3O[C@]34C(=O)O[C@H]2[C@]14C , the logged red/green cell ratio (normalised) turned out to be 0.89 (inactive)

So for CC(=O)O[C@H]1CC[C@@]2(C)C(=CCC3C2CC[C@]2(C)C(=O)CCC32)C1 (some centres not stated) , the logged red/green cell ratio (normalised) turned out to be 0.81 (inactive)

So for c1cncc(C2=NCCC2)c1 , the logged red/green cell ratio (normalised) turned out to be 0.94 (inactive)

So for c1ccc(N2CCNCC2)cc1 , the logged red/green cell ratio (normalised) turned out to be 1.17 (inactive)

So for O=C1C=C2C(=CCOC2O)O1 (configuration not stated) , the logged red/green cell ratio (normalised) turned out to be 0.44 (inactive)

So for O=C(O)COc1ccc(Cl)cc1Cl , the logged red/green cell ratio (normalised) turned out to be 1.22 (inactive)

====

- assay_method_text: sensitizers of A549 cells to miR-34 induction, primary screen, imaging, A549 dox-inducible miR-34, nuclei and caspase counts (AID 1347080)
- setup_conditions: A549 miR-34 inducible, Hoechst nuclei count, 48 h; measured here: total cells without miR-34 induction
Exercise: state measured cell count for each of the compounds provided.
Number only, no unit.

So for CCCC[C@H]1C(=O)O[C@H](C)[C@H](NC(=O)c2cccc(NC=O)c2OC)C(=O)O[C@@H](C)[C@@H]1OC(=O)CC(C)C , the logged cell count turned out to be 680

So for CN1CC[C@@]2(C)c3cc(O)ccc3N(C)C12 (some centres not stated) , the logged cell count turned out to be 8270

So for O=c1ccc2cc(OC3O[C@H](CO)[C@@H](O)[C@H](O)[C@H]3O)c(O)cc2o1 (some centres not stated) , the logged cell count turned out to be 9590

So for C[C@](O)(COc1ccc(C#N)cc1)C(=O)Nc1ccc(C#N)c(C(F)(F)F)c1 , the logged cell count turned out to be 7700

So for C[C@@H]([C@H](O)c1ccccc1)N(C)C , the logged cell count turned out to be 9440

So for CCCCC/C=C\C/C=C\C/C=C\C/C=C\CCCC(=O)NCCc1ccc(O)c(O)c1 , the logged cell count turned out to be 5510

So for COP(=S)(OC)Oc1ccc(Sc2ccc(OP(=S)(OC)OC)cc2)cc1 , the logged cell count turned out to be 11100

So for CC1(C(=O)O)C2CCC(O2)C1(C)C(=O)O (configuration not stated) , the logged cell count turned out to be 362

So for CCNC(=O)[C@H]1O[C@@H](n2cnc3c(N)ncnc32)[C@@H](O)C1O (some centres not stated) , the logged cell count turned out to be 6360

So for O=C1/C(=C/c2ccccc2)C[C@@]2(O)C3Cc4ccc(O)c5c4[C@@]2(CCN3CC2CC2)[C@H]1O5 , the logged cell count turned out to be 833

So for O=C1CCC[C@@H]2[C@@H]3CCCN4CCC[C@H](CN12)[C@@H]34 , the logged cell count turned out to be 9410

So for CC(C)(O)[C@H]1O[C@H]2CC[C@@]3(C)[C@@](O)(CC[C@H]4Cc5c([nH]c6ccccc56)[C@@]43C)C2=CC1=O , the logged cell count turned out to be 3460

So for CC(C)(c1ccccc1)c1ccc(O)cc1 , the logged cell count turned out to be 9870

So for COc1ccc2c(c1)c(CCN1CCOCC1)c(C)n2C(=O)c1cccc(Cl)c1Cl , the logged cell count turned out to be 7100

So for Cc1nnc2n1-c1ccc(Cl)cc1C(c1ccccc1)=NC2 , the logged cell count turned out to be 8940

So for CC[C@]1(O)CCC2C3CCC4=CCCCC4C3CC[C@@]21C (some centres not stated) , the logged cell count turned out to be 5590

So for CCN1C[C@@]2(COC)C3[C@@H](OC)C4[C@@H]1C3([C@@H]1C[C@@]3(O)[C@H](OC(=O)c5ccccc5)[C@@H]1[C@]4(OC(C)=O)[C@@H](O)[C@@H]3OC)[C@H](OC)C[C@H]2O , the logged cell count turned out to be 10500

So for NC1=NC(=O)C(c2ccccc2)O1 (configuration not stated) , the logged cell count turned out to be 9950

So for CC1=NCCc2c1[nH]c1cc(O)ccc21 , the logged cell count turned out to be 10500

So for COc1cc2c(cc1OC)[C@@]13CCN4CC5=CCOC6CC(=O)N2C1[C@H]6[C@H]5C[C@H]43 (some centres not stated) , the logged cell count turned out to be 12300

So for CC1(O)C[C@@]23C[C@@H](O)[C@@]4(O)[C@@H](C[C@H](O)C4(C)C)[C@](C)(O)[C@@H]2CCC1[C@H]3O (some centres not stated) , the logged cell count turned out to be 6440

So for CC(O)CN1CCN(CC(=O)[O-])CCN(CC(=O)[O-])CCN(CC(=O)[O-])CC1.[Gd+3] (configuration not stated) , the logged cell count turned out to be 9240
